Molecular target: ICE (Homo sapiens, UniProt P29466)
Sequence (P29466 120-297 limits assumed): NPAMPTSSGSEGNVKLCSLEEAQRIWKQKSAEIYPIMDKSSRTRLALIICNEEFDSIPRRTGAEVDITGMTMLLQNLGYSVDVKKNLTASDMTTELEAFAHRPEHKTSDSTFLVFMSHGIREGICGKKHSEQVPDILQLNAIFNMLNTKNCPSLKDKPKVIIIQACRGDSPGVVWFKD
Sequence (P29466 317-404 limits assumed): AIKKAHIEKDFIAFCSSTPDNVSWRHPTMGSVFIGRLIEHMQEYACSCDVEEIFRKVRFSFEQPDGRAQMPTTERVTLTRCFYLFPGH
Assay: Enzyme assay with UV-visible substrate (visible ICE assay, Succinyl-Tyr-Val-Ala-Asp-pNitroanilide)
Format: biochemical
Settings: Table 17
pKi: −log10 of the molar value.
Response key: 1 means pKi >= 7; -1 means pKi < 7.

Completed entries (count: 5):
INSERT INTO assay_data (molecule, target_system, assigned_label) VALUES
  ('O=C[C@H](CC(=O)O)NC(=O)[C@@H]1CCCN2C(=O)CCN(NC(=O)c3cc4ccccc4s3)C(=O)N12 [Compound 1053]', 'ICE (Homo sapiens, UniProt P29466)', 1),
  ('O=C[C@H](CC(=O)O)NC(=O)[C@@H]1CCCN2C(=O)CCN(NC(=O)Nc3ccccc3)C(=O)N12 [Compound 265f]', 'ICE (Homo sapiens, UniProt P29466)', -1),
  ('O=C[C@H](CC(=O)O)NC(=O)[C@@H]1CCCN2C(=O)CCN(NS(=O)(=O)c3ccc4ccccc4c3)C(=O)N12 [Compound 265a]', 'ICE (Homo sapiens, UniProt P29466)', -1),
  ('Cc1cc(C(=O)N[C@H]2CN(C(=O)CO)c3ccccc3N(CC(=O)N[C@H](C=O)CC(=O)O)C2=O)cc(C)c1O [Compound 691a]', 'ICE (Homo sapiens, UniProt P29466)', 1),
  ('O=C[C@H](CC(=O)O)NC(=O)[C@@H]1CCCN2C(=O)CCN(NC(=O)/C=C/c3ccc(Cl)c(Cl)c3)C(=O)N12 [Compound 1115]', 'ICE (Homo sapiens, UniProt P29466)', -1);

Please indicate if the recorded pKi for CC(=O)OCC(=O)N1C[C@H](NC(=O)c2ccccc2)C(=O)N(CC(=O)N[C@H](C=O)CC(=O)O)c2ccccc21 [Compound 683] meets or exceeds 7.
-1

// next record O=C[C@H](CC(=O)O)NC(=O)[C@@H]1CCCN2C(=O)CCN(NC(=O)CCc3ccccc3)C(=O)N12 [Compound 1105]
-1
